MEASUREMENT_TARGET: T1, exemplary TAT frataxin fusion molecule (HIV-1, UniProt Q16595 1-210)
T1 construct: in the bridging assays biotinylated and sulfotagged forms were used; also called TAT-FXN fusion molecule; TAT FXN fusion molecule
T1 sequence: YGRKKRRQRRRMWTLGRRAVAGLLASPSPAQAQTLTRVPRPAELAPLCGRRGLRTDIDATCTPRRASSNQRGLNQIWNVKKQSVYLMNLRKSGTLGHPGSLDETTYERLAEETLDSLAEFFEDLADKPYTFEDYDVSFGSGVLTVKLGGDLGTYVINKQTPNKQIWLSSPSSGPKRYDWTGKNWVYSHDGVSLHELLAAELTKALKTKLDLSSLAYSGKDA
ASSAY_OVERVIEW: PK sandwich ELISA in human plasma, antibody as capture, HRP anti-frataxin mAb detection
Reported values of S/N at plasma conc. 1.60 ng/mL for individual entries
Please state the value as a number alone, without comment.

As a guide, the following entries are already answered.
[[record]]
binder = "antibody 10-9 (antibody, V domains shown, Rabbit monoclonal) VH: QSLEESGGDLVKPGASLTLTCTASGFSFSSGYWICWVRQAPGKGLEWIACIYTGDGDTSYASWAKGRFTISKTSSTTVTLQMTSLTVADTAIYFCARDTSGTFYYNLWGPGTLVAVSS VL: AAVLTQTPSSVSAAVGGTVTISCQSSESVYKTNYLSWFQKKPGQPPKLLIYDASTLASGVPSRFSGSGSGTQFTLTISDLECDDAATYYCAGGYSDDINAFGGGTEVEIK"
measure_name = "S/N at plasma conc. 1.60 ng/mL"
quantitative_readout = 3

[[record]]
binder = "antibody 12-3 (antibody, V domains shown, Rabbit monoclonal) VH: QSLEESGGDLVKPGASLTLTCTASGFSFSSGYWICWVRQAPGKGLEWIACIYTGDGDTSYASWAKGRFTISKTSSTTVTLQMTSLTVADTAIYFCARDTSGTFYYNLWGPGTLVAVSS VL: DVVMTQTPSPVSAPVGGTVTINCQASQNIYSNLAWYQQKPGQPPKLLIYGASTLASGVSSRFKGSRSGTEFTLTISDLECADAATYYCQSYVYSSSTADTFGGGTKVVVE"
measure_name = "S/N at plasma conc. 1.60 ng/mL"
quantitative_readout = 3.1


Now consider a different binder.
What the record says about antibody 12-8 (antibody, V domains shown, Rabbit monoclonal) VH: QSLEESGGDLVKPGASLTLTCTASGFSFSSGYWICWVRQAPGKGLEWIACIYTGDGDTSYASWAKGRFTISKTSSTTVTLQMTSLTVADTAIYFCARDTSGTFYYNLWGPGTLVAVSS VL: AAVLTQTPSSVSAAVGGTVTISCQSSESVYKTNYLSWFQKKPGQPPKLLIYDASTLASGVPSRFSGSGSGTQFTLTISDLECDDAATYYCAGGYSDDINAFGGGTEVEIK : S/N at plasma conc. 1.60 ng/mL is 2.7
